Consider the following binders and their measured GDF15-GFRAL RET pERK IC50 (pM) readings.
# STUDY SYSTEM: T1, GDF15 (ligand used in the GFRAL/RET cell assays) (UniProt Q99988 197-308, limits assumed)
# T1 sequence (looked up): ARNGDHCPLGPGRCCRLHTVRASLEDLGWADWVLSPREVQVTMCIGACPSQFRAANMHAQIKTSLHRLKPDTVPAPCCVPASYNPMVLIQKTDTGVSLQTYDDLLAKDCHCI
# PROTOCOL TEXT: cell-based or functional assay
Your answer should be a plain number; it is taken to be in pM.

Worked cases, answers included:
BINDER	GDF15-GFRAL RET pERK IC50 (pM)
GDF15 antibody agent Clone L, IgG (antibody, V domains shown) VH: QVQLVQSGAEVKKPGASVKVSCKASGYTFASYDIIWVRQAPGQGLEWMGWISALSGDTVYAQKLQGRVTMTTDTSTSTAYMELRSLRSDDTAVYYCARTRHDTSGIRFDYWGQGTLVTVSS VL: DIQMTQSPSSVSASVGDRVTITCRASQGIDSWLAWYQQKPGKAPKLLIYAASSLQSGVPSRFSGSGSGTDFTLTISSLQPEDFATYYCQQVHSFPITFGGGTKVEIKR	13.5
GDF15 antibody agent Clone K, IgG (antibody, V domains shown) VH: QVQLVQSGAEVKKPGASVKVSCKASGYTFTNEGISWVRQAPGQGLEWMGWISAYTADTFYAQKLQGRVTMTTDTSTSTAYMELRSLRSDDTAVYYCARTRHDTSGLRFDYWGQGTLVTVSS VL: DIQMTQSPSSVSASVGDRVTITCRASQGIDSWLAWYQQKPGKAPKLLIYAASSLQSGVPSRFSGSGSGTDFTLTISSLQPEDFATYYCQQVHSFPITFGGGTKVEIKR	187
GDF15 antibody agent Clone I, IgG (antibody, V domains shown) VH: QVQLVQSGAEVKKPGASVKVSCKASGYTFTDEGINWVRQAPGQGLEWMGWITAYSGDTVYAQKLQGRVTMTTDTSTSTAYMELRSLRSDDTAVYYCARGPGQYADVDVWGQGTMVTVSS VL: DIQMTQSPSSVSASVGDRVTITCRASQGISSWLAWYQQKPGKAPKLLIYAASSLQSGVPSRFSGSGSGTDFTLTISSLQPEDFATYYCQQANSFPITFGGGTKVEIKR	34.5

Turning to the following binder.
## Input Reported GDF15-GFRAL RET pERK IC50 (pM) for GDF15 antibody agent Clone P, IgG (antibody, V domains shown) VH: QVQLVQSGAEVKKPGATVKVSCKASGYTFDSYGIHWVRQAPGQGLEWMGWITAYSGDTVYAQKLQGRVTMTTDTSTSTAYMELRSLRSDDTAVYYCARESGQTSSALGPWGQGTLVTVSS VL: DIQMTQSPSSVSASVGDRVTITCRASQGISRWLAWYQQKPGKAPKLLIYAASSLQSGVPSRFSGSGSGTDFTLTISSLQPEDFATYYCQQGASFPLTFGGGTKVEIKR : what is it?
## Output 35.6
